Target: Muscarinic acetylcholine receptor M2 (Homo sapiens); note: assay procedure not described here
Sequence (P08172 whole entry): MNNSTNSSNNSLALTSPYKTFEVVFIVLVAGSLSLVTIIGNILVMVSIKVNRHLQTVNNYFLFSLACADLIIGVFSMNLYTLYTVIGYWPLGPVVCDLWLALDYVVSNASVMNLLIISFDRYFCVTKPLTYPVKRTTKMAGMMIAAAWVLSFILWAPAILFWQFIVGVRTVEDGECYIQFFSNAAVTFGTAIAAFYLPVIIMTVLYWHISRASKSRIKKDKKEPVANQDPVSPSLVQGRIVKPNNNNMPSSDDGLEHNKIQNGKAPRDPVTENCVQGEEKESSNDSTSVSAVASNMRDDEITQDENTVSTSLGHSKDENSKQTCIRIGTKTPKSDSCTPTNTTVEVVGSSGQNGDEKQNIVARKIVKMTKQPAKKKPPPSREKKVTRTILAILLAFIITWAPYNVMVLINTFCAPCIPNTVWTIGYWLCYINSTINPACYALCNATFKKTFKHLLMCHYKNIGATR
Assay type: functional, cell-based
assay_endpoint: AC50

Please state recorded AC50 (tested on Muscarinic acetylcholine receptor M2 (Homo sapiens)) of O=C(O)C1=C(CSc2nnnn2CS(=O)(=O)O)CS[C@@H]2[C@H](NC(=O)[C@H](O)c3ccccc3)C(=O)N12; note: assay procedure not described here
> 30 µM

Can you check CC(C)(C)C(=O)Oc1ccc(S(=O)(=O)Nc2ccccc2C(=O)NCC(=O)O)cc1 next?
> 30 µM

# repeat for CN1CCN(CC/C=C2/c3ccccc3Sc3ccc(S(=O)(=O)N(C)C)cc32)CC1
> 10 µM

Then CNC1Cc2ccccc2N(C)c2ccccc21 (stereo not given) ?
> 30 µM

Repeat for the following compound: OC(CNCC(O)C1CCc2cc(F)ccc2O1)C1CCc2cc(F)ccc2O1 (stereo not given)
> 10 µM

Cited source: ChEMBL document CHEMBL5291721
